- Test system: CFPAC-1
- PROTOCOL_SUMMARY: Cell viability (CellTiter-Glo) of CFPAC-1
- Assay type: cell-based
- DETAILS: Homo sapiens, 72 h; CFPAC-1, 3 days of culture
pIC50: −log10 of the molar value.
READOUT_TYPE: pIC50

compound="O=C(C[n+]1ccc(NCc2ccccc2)cc1)c1cccc(Cl)c1 [AB24805A]" readout_type=pIC50 readout_relation== observed=4.45
compound="O=C1c2ccc(Cl)cc2CCC1[n+]1ccc(NCc2ccccc2)cc1 (stereo not drawn) [AB24841A]" readout_type=pIC50 readout_relation== observed=4.45
compound="O=C(C[n+]1ccc2[nH]cc(Cc3ccccc3)c2c1)c1ccc(Cl)cc1 [AB24833A]" readout_type=pIC50 readout_relation== observed=4.60
compound="O=C(C[n+]1ccc(NCc2ccccc2)cc1)c1ccc(C(F)(F)F)cc1 [AB24809A]" readout_type=pIC50 readout_relation=< observed=4.30
compound="O=C(C[n+]1ccc(NCc2ccccc2)cc1)c1ccc(Br)cc1 [AB24808A]" readout_type=pIC50 readout_relation== observed=4.70
compound="Cc1ccc(C(=O)C[n+]2ccc(NCc3ccccc3)nc2)cc1 [AB24846]" readout_type=pIC50 readout_relation== observed=4.44
compound="Cc1ccc(C(=O)C[n+]2ccc(NCc3ccccc3)cc2)cc1 [AB24845A]" readout_type=pIC50 readout_relation== observed=4.53
compound="O=C(C[n+]1ccc(NCc2ccccc2)cc1)c1ccc(OC(F)(F)F)cc1 [AB24810A]" readout_type=pIC50 readout_relation== observed=4.44
compound="O=C(C[n+]1ccc(NCc2ccccc2)cc1)c1cccc([N+](=O)[O-])c1 [AB24852]" readout_type=pIC50 readout_relation=< observed=4.30

Value source: patent US20240124445A1
